Molecular target: XIAP-BIR2 (Homo sapiens (Human))
Sequence (P98170 124-240): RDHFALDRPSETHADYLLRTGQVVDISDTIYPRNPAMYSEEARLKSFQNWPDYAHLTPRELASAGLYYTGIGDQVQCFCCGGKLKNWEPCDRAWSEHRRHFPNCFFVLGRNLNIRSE
Assay: BIR binding assay (FRET competition), XIAP BIR2
Details: FRET competition binding; read-out: XIAP BIR2 (pIC50) (converted)
IC50 values, listed per item

Compound	IC50
C[C@@H]1CN(CC(=O)N2CC(C)(C)c3[nH]c(=O)c(Cc4ccc(F)cc4)cc32)[C@@H](CN2CCN(C(=O)COCCOCCOCC(=O)N3CCN(C[C@H]4CN[C@H](C)CN4CC(=O)N4CC(C)(C)c5[nH]c(=O)c(Cc6ccc(F)cc6)cc54)[C@H](C)C3)C[C@H]2C)CN1 (stereo in doubt)	10 to 51.3 µM
C[C@@H]1CN(CC(=O)N2CC(C)(C)c3[nH]c(=O)c(Cc4ccc(F)cc4)cc32)[C@@H](CN2CCO[C@H](C(=O)N[C@H]3CC[C@H](NC(=O)[C@@H]4CN(C[C@H]5CN[C@H](C)CN5CC(=O)N5CC(C)(C)c6[nH]c(=O)c(Cc7ccc(F)cc7)cc65)CCO4)CC3)C2)CN1	10 to 51.3 µM
